Target: DNA topoisomerase 1 (Homo sapiens)
Test: Topoisomerase I […] was evaluated by Fluorescence assay using Ethidium Bromide after heat denaturation of pBR322 DNA at concentration 50 uM
Settings: Escherichia coli
ATTRIBUTE MEASURED: Change

[[record]]
structure_string = "CN(C)CCCNC(=O)c1cc(NC(=O)Cn2cc(C3=C(c4c[nH]c5ccccc45)C(=O)NC3=O)c3ccccc32)cn1C"
observed_value = "7%"

[[record]]
structure_string = "COC(=O)c1cc(NC(=O)c2cc(NC(=O)Cn3cc(C4=C(c5c[nH]c6ccccc56)C(=O)NC4=O)c4ccccc43)cn2C)cn1C"
observed_value = "15%"

[[record]]
structure_string = "CN(C)CCCNC(=O)c1cc(NC(=O)c2cc(NC(=O)c3cc(NC(=O)Cn4cc(C5=C(c6c[nH]c7ccccc67)C(=O)NC5=O)c5ccccc54)cn3C)cn2C)cn1C"
observed_value = "15%"

[[record]]
structure_string = "CN(C)CCCNC(=O)c1cc(NC(=O)c2cc(NC(=O)Cn3cc(C4=C(c5c[nH]c6ccccc56)C(=O)NC4=O)c4ccccc43)cn2C)cn1C"
observed_value = "3%"

[[record]]
structure_string = "COC(=O)c1cc(NC(=O)c2cc(NC(=O)c3cc(NC(=O)Cn4cc(C5=C(c6c[nH]c7ccccc67)C(=O)NC5=O)c5ccccc54)cn3C)cn2C)cn1C"
observed_value = "17%"

[[record]]
structure_string = "COC(=O)c1cc(NC(=O)Cn2cc(C3=C(c4c[nH]c5ccccc45)C(=O)NC3=O)c3ccccc32)cn1C"
observed_value = "12%"


* * *

Each entry below carries its recorded CC50.
Assay: In vitro cytotoxicity against KB cancer cell line (ATCC CCL 17).
Format: cell-based
Settings: human, KB cancer cells (ATCC CCL 17); read-out: TD50 (the source's name)
ATTRIBUTE MEASURED: CC50

[[record]]
structure_string = "CN(C)CCCNC(=O)c1cc(NC(=O)c2cc(NC(=O)Cn3cc(C4=C(c5c[nH]c6ccccc56)C(=O)NC4=O)c4ccccc43)cn2C)cn1C"
attribute_measured = "CC50"
observed_value = "92.3 µg/mL"

[[record]]
structure_string = "COC(=O)c1cc(NC(=O)Cn2cc(C3=C(c4c[nH]c5ccccc45)C(=O)NC3=O)c3ccccc32)cn1C"
attribute_measured = "CC50"
observed_value = "53.2 µg/mL"

[[record]]
structure_string = "COC(=O)c1cc(NC(=O)c2cc(NC(=O)c3cc(NC(=O)Cn4cc(C5=C(c6c[nH]c7ccccc67)C(=O)NC5=O)c5ccccc54)cn3C)cn2C)cn1C"
attribute_measured = "CC50"
observed_value = "77.3 µg/mL"

[[record]]
structure_string = "CN(C)CCCNC(=O)c1cc(NC(=O)Cn2cc(C3=C(c4c[nH]c5ccccc45)C(=O)NC3=O)c3ccccc32)cn1C"
attribute_measured = "CC50"
observed_value = "84 µg/mL"

[[record]]
structure_string = "CN(C)CCCNC(=O)c1cc(NC(=O)c2cc(NC(=O)c3cc(NC(=O)Cn4cc(C5=C(c6c[nH]c7ccccc67)C(=O)NC5=O)c5ccccc54)cn3C)cn2C)cn1C"
attribute_measured = "CC50"
observed_value = "> 100 µg/mL"

[[record]]
structure_string = "COC(=O)c1cc(NC(=O)c2cc(NC(=O)Cn3cc(C4=C(c5c[nH]c6ccccc56)C(=O)NC4=O)c4ccccc43)cn2C)cn1C"
attribute_measured = "CC50"
observed_value = "58 µg/mL"

[[record]]
structure_string = "CC[C@@]1(O)C(=O)OCc2c1cc1n(c2=O)Cc2cc3ccccc3nc2-1"
attribute_measured = "CC50"
observed_value = "0.01 µg/mL"

